B1: DCAF4 (parent)
chain: DSHILLCLMGLAETPGCATLLPAS

variants of: B1; assay: protein stability index of a GFP-peptide fusion (GPS, HEK-293T) (PSI 1-6); higher = more stable; conditions: c terminus: a fixed tail appended;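 note: lentivirally expressed fusions sorted by FACS into six bins by GFP to DsRed ratio, PSI derived from sequencing read proportions per bin multiplied by bin number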
Response field class: enum, chosen by comparing protein stability index against zone 1: < 2; zone 2: ≥ 2 and < 3; zone 3: ≥ 3

{"item.sequence": "DSHILLFLMGLAETPGCATLLPAS", "category": "zone 2"}
{"item.sequence": "DSHILLCLMGLAETPGCATALPAS", "category": "zone 3"}
{"item.sequence": "DSHILLCLMGLAETPGCATLLPAE", "category": "zone 1"}
{"item.sequence": "DSHILLCLMGLAETPECATLLPAS", "category": "zone 3"}
{"item.sequence": "DFHILLCLMGLAETPGCATLLPAS", "category": "zone 3"}
{"item.sequence": "DHHILLCLMGLAETPGCATLLPAS", "category": "zone 1"}
{"item.sequence": "DSHILLCLMGLAETPGCATELPAS", "category": "zone 1"}
{"item.sequence": "DSHIHLCLMGLAETPGCATLLPAS", "category": "zone 1"}
{"item.sequence": "DSHILACLMGLAETPGCATLLPAS", "category": "zone 1"}
{"item.sequence": "DSHILLKLMGLAETPGCATLLPAS", "category": "zone 2"}
{"item.sequence": "DSHILLCLMGLAETPGCATLGPAS", "category": "zone 2"}
{"item.sequence": "QSHILLCLMGLAETPGCATLLPAS", "category": "zone 2"}
{"item.sequence": "DSHILLCLMGLAETPGCASLLPAS", "category": "zone 2"}
{"item.sequence": "DSHILLCLMGLAETYGCATLLPAS", "category": "zone 2"}
{"item.sequence": "DSHILLCLMGGAETPGCATLLPAS", "category": "zone 1"}
{"item.sequence": "DSHILFCLMGLAETPGCATLLPAS", "category": "zone 2"}
{"item.sequence": "DSHILLCLMGLAETPGCADLLPAS", "category": "zone 3"}
{"item.sequence": "DSHILLCLMGAAETPGCATLLPAS", "category": "zone 2"}
{"item.sequence": "DSHILLCLDGLAETPGCATLLPAS", "category": "zone 1"}
{"item.sequence": "DSHILLCLMGNAETPGCATLLPAS", "category": "zone 1"}
{"item.sequence": "DSHILLCLMGLAETPGCATSLPAS", "category": "zone 2"}
{"item.sequence": "DSHILLCLMGLAETPGCATLLPHS", "category": "zone 1"}
{"item.sequence": "DSHILLCLMGLAEKPGCATLLPAS", "category": "zone 3"}
{"item.sequence": "DSHILLCLMGLAETPGCATLEPAS", "category": "zone 1"}
{"item.sequence": "DSHRLLCLMGLAETPGCATLLPAS", "category": "zone 1"}
{"item.sequence": "DSGILLCLMGLAETPGCATLLPAS", "category": "zone 3"}
{"item.sequence": "DSHIRLCLMGLAETPGCATLLPAS", "category": "zone 1"}
{"item.sequence": "DSHILLCLMGLAETPGCATLLPAD", "category": "zone 1"}
{"item.sequence": "DSHIYLCLMGLAETPGCATLLPAS", "category": "zone 2"}
{"item.sequence": "DSHILTCLMGLAETPGCATLLPAS", "category": "zone 1"}
{"item.sequence": "DSHIALCLMGLAETPGCATLLPAS", "category": "zone 1"}
{"item.sequence": "DSNILLCLMGLAETPGCATLLPAS", "category": "zone 3"}
{"item.sequence": "DSHDLLCLMGLAETPGCATLLPAS", "category": "zone 1"}
{"item.sequence": "DSHILLCLMGLAETPGCATLLPAR", "category": "zone 2"}
{"item.sequence": "DSHILSCLMGLAETPGCATLLPAS", "category": "zone 1"}
{"item.sequence": "DSHILLSLMGLAETPGCATLLPAS", "category": "zone 1"}
{"item.sequence": "DSPILLCLMGLAETPGCATLLPAS", "category": "zone 2"}
{"item.sequence": "DSWILLCLMGLAETPGCATLLPAS", "category": "zone 3"}
{"item.sequence": "DSHILLCLMGLRETPGCATLLPAS", "category": "zone 2"}
{"item.sequence": "DSHILLCLMGLAETPGCLTLLPAS", "category": "zone 3"}
{"item.sequence": "DSHILLCLMGLAETPGCMTLLPAS", "category": "zone 3"}
